Assay: Solubility of amorphous substance in solvent systems (supersaturated solution, oscillated 24 h at room temperature, HPLC)
Type: physicochemical
Conditions: dehydrated alcohol-propylene glycol-water solvent mixture, aqueous with cosolvent or surfactant or cyclodextrin, thermodynamic from solid, Dehydrated alcohol 35%-propylene glycol 35%-water 30% (w/w); read-out: Solubility
Method: The amorphous substance of the compound of formula I was prepared into supersaturated solutions with different solvents, and oscillated under a room temperature condition (a constant temperature). After oscillating for 24 h, sampling was performed, and the content of the sample was detected by HPLC under condition 1. […]
quantity-name: solubility at 24 h
Note to self: number, then unit, no commentary.

QUERY: Find the measured solubility at 24 h of Cc1ncsc1-c1ccc(CNC(=O)[C@@H]2C[C@@H](O)CN2C(=O)[C@@H](NC(=O)COCCCCOc2ccc(-c3ccc(N4C(=S)N(c5ccc(C#N)c(C(F)(F)F)c5F)C(=O)C4(C)C)cn3)cc2)C(C)(C)C)cc1 and report it.
RESULT: 52.3 mg/mL
